Data credit: ChEMBL document CHEMBL1123279

Test: Partition coefficient (logD7.4)
Format: physicochemical
Conditions: octanol/water, pH 7.4
readout label: logD

COc1ccc(CCNCC(O)COc2ccc(-c3nc(Br)c(C)[nH]3)cc2)cc1OC (centres undefined) :: 1.98
OC(CNCCc1ccncc1)COc1ccc(-c2nc(-c3cccs3)c[nH]2)cc1 (centres undefined) :: 1.9
COc1ccc(CCNCC(O)COc2ccc(-c3nc(-c4cccs4)c[nH]3)cc2Cl)cc1OC (centres undefined) :: 2.34
CCOCCNC[C@H](O)COc1ccc(-c2nc(-c3cccs3)c[nH]2)cc1 :: 1.86
COc1ccc(CCNCC(O)COc2ccc(-c3nc(Br)c[nH]3)cc2)cc1OC (centres undefined) :: 1.24
CCCCNC(=O)NCCNCC(O)COc1ccc(-c2nc(C)c[nH]2)cc1 (centres undefined) :: 0.699
COc1ccc(CCNCC(O)COc2ccc(-c3nc(C(C)(C)C)c[nH]3)cc2)cc1OC (centres undefined) :: 2.09
COc1ccc(CCNCC(O)COc2ccc(-c3nc(C)c(Cl)[nH]3)cc2)cc1OC (centres undefined) :: 1.88

a = COc1ccc(CCNC[C@H](O)COc2ccc(-c3nc(C(C)=O)c[nH]3)cc2)cc1OC
b = CC(C)NCC(O)COc1ccc(-c2ncc[nH]2)cc1 (centres undefined)
Query block: Between the two listed entries a and b , which has its logD at the higher number? The response must carry the label of the picked entry.
Result block: a

A = COc1ccc(CCNCC(O)COc2ccc(Cc3nc(-c4cccs4)c[nH]3)cc2)cc1OC (centres undefined)
B = COc1ccc(CCNCC(O)COc2ccc(Cc3nc(C)c[nH]3)cc2)cc1OC (centres undefined)
Query block: Given the listed items, does A or B have the lesser reported logD? Please identify the chosen entry by its label.
Result block: B

1 = COc1ccc(CCNCC(O)COc2ccc(-c3nc(C(C)C)c[nH]3)cc2)cc1OC (centres undefined)
2 = COc1ccc(CCNCC(O)COc2ccc(OCc3ncc[nH]3)cc2)cc1OC (centres undefined)
Query block: Given the two records 1 and 2 , choose the one whose logD value is lower. Use the label to indicate which entry you chose.
Result block: 2

====

Assay: Dissociation constant (pKa)
Format: physicochemical
readout label: pKa

A = COc1ccc(CCNCC(O)COc2ccc(-c3nc(C)c(C)[nH]3)cc2)cc1OC (centres undefined)
B = CCOCCNC[C@H](O)COc1ccc(-c2nc(-c3cccs3)c[nH]2)cc1
Query block: # argmax over pKa for candidates A and B Write the label of whichever entry you select.
Result block: A
(A: 6.72, B: 4.6)

P = COc1ccc(CCNCC(O)COc2ccc(-c3nc(-c4cccs4)c[nH]3)cc2Cl)cc1OC (centres undefined)
Q = COc1ccc(CCNCC(O)COc2ccc(-c3nc(C(C)(C)C)c[nH]3)cc2)cc1OC (centres undefined)
Query block: Hi there! Just curious which has the higher pKa between P and Q . Your answer should be the label of the entry you select.
Result block: Q
(Q: 6.2, P: 4.02)

====

Experiment: Partition coefficient (logD7.4)
Format: physicochemical
Details: octanol/water, pH 7.4
readout label: logD

Reference set, count: 3
CCOCc1c[nH]c(-c2ccc(OCC(O)CNCCc3ccc(OC)c(OC)c3)cc2)n1 (stereo not given) :: 0.312
COc1ccc(CCNC[C@H](O)COc2ccc(-c3nc(C(C)(C)C)c[nH]3)cc2)cc1OC :: 2.2
COc1ccc(CCNCC(O)COc2ccc(-c3nccs3)cc2)cc1OC (stereo not given) :: 0.505

P = COc1ccc(CCNCC(O)COc2ccc(CCc3nc(Br)c[nH]3)cc2)cc1OC (stereo not given)
Q = COc1ccc(CCNCC(O)COc2ccc(COCc3ncc[nH]3)cc2)cc1OC (stereo not given)
Query block: For the two items P and Q , which reports the higher logD value? Identify your pick by its label.
Result block: P
(P: 1, Q: 0.633)
